Items are presented alongside their recorded CC50.
# Test system: Murine Splenocytes
# protocol_notes: Cytotoxicity on uninfected ex vivo explants
# Type: cell-based, mouse
# setup_conditions: read-out: CC50 Murine Splenocytes; CC50 ± SD; uninfected splenocytes, 48 h

[
  {
    "smiles_entry": "COc1cc([C@@H]2c3cc4c(cc3C(=O)[C@H]3COC(=O)[C@H]23)OCO4)cc(OC)c1OC",
    "subject_of_test": "Murine Splenocytes",
    "CC50 / µM": 60.6
  },
  {
    "smiles_entry": "COc1cc([C@@H]2c3cc4c(cc3C[C@H]3COC(=O)[C@@H]32)OCO4)cc(OC)c1OC",
    "subject_of_test": "Murine Splenocytes",
    "CC50 / µM": 98.6
  }
]

----------
# protocol_notes: Cytotoxicity on HepG2 cells
# Format: cell-based, human
# setup_conditions: human, HepG2 cells (ATCC HB-8065)
Items are presented alongside their recorded CC50 at 48 h.

[
  {
    "compound": "CCCCCCCCCCCCCCCCOP(=O)([O-])OCC[N+](C)(C)C [Miltefosine, miltefosine, reference compound]",
    "unit_label": "µM",
    "result_operator": "=",
    "CC50 at 48 h": 50.4
  },
  {
    "compound": "COc1cc([C@@H]2c3cc4c(cc3[C@@H](O)[C@H]3COC(=O)[C@H]23)OCO4)cc(OC)c1OC [Compound 2b, epipodophyllotoxin]",
    "unit_label": "µM",
    "result_operator": "=",
    "CC50 at 48 h": 30.6
  },
  {
    "compound": "COc1cc([C@@H]2c3cc4c(cc3[C@H](O)[C@H]3COC(=O)[C@H]23)OCO4)cc(OC)c1OC",
    "unit_label": "µM",
    "result_operator": "=",
    "CC50 at 48 h": 0.7
  },
  {
    "compound": "COC(=O)[C@@H]1C(C=O)=Cc2cc3c(cc2[C@H]1c1cc(OC)c(OC)c(OC)c1)OCO3",
    "unit_label": "µM",
    "result_operator": ">",
    "CC50 at 48 h": 100
  }
]

----------
# protocol_notes: Cytotoxicity on uninfected ex vivo explants
# Type: cell-based, mouse
# setup_conditions: BALB/c, mouse, uninfected ex vivo splenic explants (murine splenocytes)

[
  {
    "compound": "COC(=O)[C@@H]1C(C=O)=Cc2cc3c(cc2[C@H]1c1cc(OC)c(OC)c(OC)c1)OCO3 [Compound 14, podophyllic aldehyde]",
    "CC50 at 48 h": "> 100 µM"
  }
]

----------
# Tested on: L. infantum promastigotes
# protocol_notes: Promastigote in vitro assay
# Format: cell-based
# setup_conditions: Leishmania infantum, read-out: EC50 L. infantum promastigotes
outcome_measure: EC50 (µM)

[
  {
    "compound": "CCCCCCCCCCCCCCCCOP(=O)([O-])OCC[N+](C)(C)C [Miltefosine, miltefosine, reference compound]",
    "subject_of_test": "L. infantum promastigotes",
    "result_operator": "=",
    "measured_value": 5.9
  },
  {
    "compound": "COc1cc([C@@H]2c3cc4c(cc3[C@H](O)[C@H]3COC(=O)[C@H]23)OCO4)cc(OC)c1OC",
    "subject_of_test": "L. infantum promastigotes",
    "result_operator": ">",
    "measured_value": 100
  },
  {
    "compound": "COc1cc([C@@H]2c3cc4c(cc3[C@@H](O)[C@H]3COC(=O)[C@H]23)OCO4)cc(OC)c1OC [Compound 2b, epipodophyllotoxin]",
    "subject_of_test": "L. infantum promastigotes",
    "result_operator": ">",
    "measured_value": 100
  },
  {
    "compound": "COC(=O)[C@@H]1C(C=O)=Cc2cc3c(cc2[C@H]1c1cc(OC)c(OC)c(OC)c1)OCO3",
    "subject_of_test": "L. infantum promastigotes",
    "result_operator": "=",
    "measured_value": 89.5
  }
]

Cited source for all entries: paper PMC5512185
